These data points were gathered from patent US20110059504A1.

Target: T1, human myostatin (human, UniProt O14793 267-375, biotinylated in selections and radioactive assays (site not stated))
T1 construct: Phage ELISA used both unbiotinylated and biotinylated myostatin; also called biotinylated human myostatin; myostatin-biotin
T1 sequence (looked up): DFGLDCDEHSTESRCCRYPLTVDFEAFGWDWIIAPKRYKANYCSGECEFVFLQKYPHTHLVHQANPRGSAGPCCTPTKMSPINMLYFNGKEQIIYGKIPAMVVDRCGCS
Experiment: radioactive equilibrium binding assay
recorded_metric: B max (%)

binder	endpoint_result
39908-G12 (designed binder, group M2-A50; also called M10 (clone ID)) MTIPEIIIKVRGTQVVGSDMTVIVEFTNPFKETLRSVWVHLDGPGVTRPMKKMFSEIRPNSTVQWEEVVRPWVSGHRKLIASMPSLLHLHVYGELDVQIQRRDYKDDDDK	34.1
39885-F10 (S82C) (designed binder, group M1-A; S82C) MTIPEIIIKVRGTQVVGSDMTVIVEFTNPLKETLRNVWVHLDGPGVTRPMKKMFPAIPMNHKVQWEEVVRPWVSGHRKLIACMPQLFHIHVYGELDVQIQRRDYKDDDDK	73.7
